Organism: Rattus norvegicus
Assay Method Text: Open TG-GATES - Regimen: Daily Repeat
Format: toxicity, organism-based, Sprague-Dawley
Parameters: regimen Daily Repeat, gender Male, age 6 weeks
Assay Context: in vivo, po, 0 mg/kg, 72 h, tissue Liver, route gavage, dose level Control, time 3 day
Endpoint: LIVER (g)
Give bare numbers, in g.

CCCCNC(=O)NS(=O)(=O)c1ccc(C)cc1 [TOLBUTAMIDE]: 10.6
O=c1ccc2ccccc2o1: 9.7
O=C(O)c1ccccc1Nc1ccccc1: 10.9

Attention now shifts to the item below.
Form field LIVER, entry Nc1ccc(Cc2ccc(N)cc2)cc1 : 11.1

---

Organism: Rattus norvegicus
Assay Method Text: Open TG-GATES - Regimen: Single
Type: toxicity, organism-based, Sprague-Dawley
Parameters: regimen Single, gender Male, age 6 weeks
Assay Context: in vivo, po, 0 mg/kg, 3 h, tissue Plasma, route gavage, dose level Control
Response field label takes Satisfied when ALT is strictly below 40 IU/L and Not satisfied in all other cases.

Solved entries (count: 3):
COc1cc2ncnc(Nc3ccc(F)c(Cl)c3)c2cc1OCCCN1CCOCC1: Not satisfied
CN(C)CCCN1c2ccccc2Sc2ccc(Cl)cc21: Satisfied
CN(CCOc1ccc(CC2SC(=O)NC2=O)cc1)c1ccccn1.O=C(O)/C=C\C(=O)O (stereo not given) [ROSIGLITAZONE MALEATE]: Satisfied

Here's an entry: COc1ccc([C@@H]2Sc3ccccc3N(CCN(C)C)C(=O)[C@@H]2OC(C)=O)cc1 . Is its ALT below 40 IU/L? Not satisfied

Here's an entry: O=c1ccc2ccccc2o1 . Is its ALT below 40 IU/L? Not satisfied
